# EXPERIMENTAL SYSTEM: UniProt Q06187
# Sequence (Q06187 whole entry): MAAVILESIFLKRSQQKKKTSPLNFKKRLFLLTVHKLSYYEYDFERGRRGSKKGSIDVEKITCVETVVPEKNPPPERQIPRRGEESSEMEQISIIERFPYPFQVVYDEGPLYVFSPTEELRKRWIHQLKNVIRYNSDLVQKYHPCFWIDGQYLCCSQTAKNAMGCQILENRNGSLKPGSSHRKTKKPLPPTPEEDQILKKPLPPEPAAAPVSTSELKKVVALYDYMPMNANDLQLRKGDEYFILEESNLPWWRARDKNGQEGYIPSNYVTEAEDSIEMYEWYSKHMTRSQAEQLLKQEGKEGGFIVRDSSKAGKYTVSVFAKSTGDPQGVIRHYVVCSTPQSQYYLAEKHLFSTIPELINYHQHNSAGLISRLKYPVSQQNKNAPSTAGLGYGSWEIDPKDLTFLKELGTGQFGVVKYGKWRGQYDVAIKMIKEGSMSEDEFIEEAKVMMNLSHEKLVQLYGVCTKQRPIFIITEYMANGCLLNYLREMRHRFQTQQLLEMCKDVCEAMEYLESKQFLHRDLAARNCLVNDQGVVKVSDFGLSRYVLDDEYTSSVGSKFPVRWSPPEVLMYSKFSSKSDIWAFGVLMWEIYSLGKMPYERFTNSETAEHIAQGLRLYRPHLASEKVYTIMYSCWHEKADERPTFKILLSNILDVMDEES
# MEASUREMENT PROTOCOL: BTK cell degradation in TMD-8 cells, HTRF assay
# Assay type: cell-based
# Set-up: endogenous in cells; host or cells: TMD-8 cells
# CONDITION SUMMARY: 6 h treatment, IC50 (DC50) of BTK degradation
The threshold is 3 nM. Values of DC50 beneath it are tagged Satisfied; values meeting or exceeding it are tagged Not satisfied.

[[record]]
compound = "Cc1c(C(=O)Nc2cscn2)ccc(-c2nn3c(c2C(N)=O)Nc2ccc(N4CCN(C[C@H]5CCN(c6ccc(N7CCC(=O)NC7=O)cc6)C5)CC4)cc2CC3)c1F"
qualitative_label = "Not satisfied"

[[record]]
compound = "COc1ccc(C(F)(F)F)cc1C(=O)NCc1ccc(-c2nn3c(c2C(N)=O)Nc2ccc(N4CCN(CC5CCN(c6ccc(N7CCC(=O)NC7=O)cc6)CC5)CC4)cc2CC3)c(F)c1F"
qualitative_label = "Satisfied"

[[record]]
compound = "COc1ccc(C(F)(F)F)cc1C(=O)NCc1ccc(-c2nn3c(c2C(N)=O)Nc2ccc(N4CCN(CC5CCN(c6ccc(N7CCC(=O)NC7=O)cc6)CC5)CC4)cc2CC3)c(OC)c1"
qualitative_label = "Satisfied"

[[record]]
compound = "NC(=O)c1c(-c2ccc(Oc3ccccc3)cc2)nn2c1Nc1cc(C3CCN(CC4CCN(c5ccc(NC6CCC(=O)NC6=O)cc5)CC4)CC3)ccc1CC2 (centres unmarked)"
qualitative_label = "Not satisfied"

[[record]]
compound = "Cc1cccc(NC(=O)c2ccc(-c3nn4c(c3C(N)=O)Nc3ccc(N5CCN(C6CN(C7CN(c8ccc(C9CCC(=O)NC9=O)cc8)C7)C6)CC5)cc3CC4)c(F)c2C)n1 (centres unmarked)"
qualitative_label = "Satisfied"

